system: hypotension induced by PAF; experiment: Inhibition of the hypotensive effect induced by PAF in normotense rats; type: in vivo, Sprage Dawley rats; conditions: Rattus norvegicus, iv; anesthetized male rats; compound via femoral vein 3 min before PAF (0.5 mcg/Kg, i.v.); dose inhibiting PAF hypotension in a 50%; read-out: ID₅₀
Threshold 0.04 mg/kg: ED50 strictly smaller gives criterion met, otherwise criterion not met.

Inquiry: Hello, I'm reviewing records and need to know if ED50 of Cc1ncccc1C(C#N)N1CCN(C(=O)CNC(c2ccccc2)c2ccccc2)CC1 (centres unmarked) [Compound 22] is below 0.04 mg/kg. Could you check?
Reply text: criterion met

Inquiry: And the next one, Cc1ncccc1C(C#N)N1CCN(C(=O)CC(NC(=O)c2ccccc2)c2ccccc2)CC1 (centres unmarked) [Compound 16] ?
Reply text: criterion not met

Inquiry: Another compound to check: Cc1ncccc1C(C#N)N1CCN(C(=O)CC(c2ccccc2)N2CCOC2=O)CC1 (centres unmarked) [Compound 68]
Reply text: criterion met

Inquiry: Quick one: CNC(=O)N(O)C(CC(=O)N1CCN(C(C#N)c2cccnc2C)CC1)c1ccccc1 (centres unmarked) [Compound 77]
Reply text: criterion not met

Inquiry: Now consider Cc1ncccc1C(C#N)N1CCN(C(=O)CC(c2ccccc2)c2ccccc2)CC1.Cl.Cl (centres unmarked) [Compound 1] .
Reply text: criterion met

Inquiry: Next compound up: Cc1ncccc1C(C#N)N1CCN(C(=O)C=C(c2ccccc2)c2ccccc2)CC1 (centres unmarked) [Compound 5]
Reply text: criterion met

Inquiry: // repeat for Cc1ncccc1C(C#N)N1CCN(C(=O)CC(c2ccccc2)N2CCCC2=O)CC1 (centres unmarked) [Compound 66] and report
Reply text: criterion met
